experiment: in vivo; details: Sprague-Dawley, rat, iv, 1 mg/kg
measuredProperty: clearance (mL/min/kg)
Reply numerically in mL/min/kg, unit not repeated.

Inquiry: Consider the compound CCc1nc2c(C)cc(C)nc2n1Cc1ccc(/C=C/CN2CCN(C(C)C)CC2)cc1 and give its recorded clearance.
Reply text: 15

====

assay: in vivo; details: Sprague-Dawley, rat, po, 3 mg/kg
measuredProperty: bioavailability
Reply with the number, then its unit.

Inquiry: Consider the compound CCc1nc2c(C)cc(C)nc2n1Cc1ccc(/C=C/CN2CCN(C(C)C)CC2)cc1 and give its recorded bioavailability.
Reply text: 86%
